- System: biotinyl-Leu-oxazolone
- assaySummary: self-aminoacylation, catalytic enhancement (BLO) (fold over background); higher = more active; k-Seq, kA / k0A0; sequences stand for … in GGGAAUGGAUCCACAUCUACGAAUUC…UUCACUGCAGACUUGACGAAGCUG
This sample holds only a part of the variants without activity.
Reported self-aminoacylation values are given for each entry in this list.

residues: AUUACCCUGGUCAUGGAGUGA [Fam2.1 aminoacylation ribozyme variant]
subjectOfTest: biotinyl-Leu-oxazolone
self-aminoacylation: 4.95

residues: AUUACCCUAGUCAUCGAAUGA [Fam2.1 aminoacylation ribozyme variant]
subjectOfTest: biotinyl-Leu-oxazolone
self-aminoacylation: 0.924

residues: AAUACCCUGGUCAUCGAAUGA [Fam2.1 aminoacylation ribozyme variant]
subjectOfTest: biotinyl-Leu-oxazolone
self-aminoacylation: 0.724

residues: AUCCACCUAGGGCAUCGGGUG [Fam2.2 aminoacylation ribozyme variant]
subjectOfTest: biotinyl-Leu-oxazolone
self-aminoacylation: 5.15

residues: CAACACGUCAAGCAAUCGGUC [Fam1B.1 aminoacylation ribozyme variant]
subjectOfTest: biotinyl-Leu-oxazolone
self-aminoacylation: 1.37

residues: AUUACCCUGGUCAUCGAGUAG [Fam2.1 aminoacylation ribozyme variant]
subjectOfTest: biotinyl-Leu-oxazolone
self-aminoacylation: 4.67

residues: AUUAACCUAGGUCCUCGGGUG [Fam2.2 aminoacylation ribozyme variant]
subjectOfTest: biotinyl-Leu-oxazolone
self-aminoacylation: 4.72

residues: AUUCACCUACGACAUCGGGUG [Fam2.2 aminoacylation ribozyme variant]
subjectOfTest: biotinyl-Leu-oxazolone
self-aminoacylation: 5.12

residues: AUUCGCCUAGGUCAUCGGCUG [Fam2.2 aminoacylation ribozyme variant]
subjectOfTest: biotinyl-Leu-oxazolone
self-aminoacylation: 2.16

residues: AUUACCGUGGUGAUCGAGUGA [Fam2.1 aminoacylation ribozyme variant]
subjectOfTest: biotinyl-Leu-oxazolone
self-aminoacylation: 3.67

residues: AUUCACCUAGGUGAUCGGUUG [Fam2.2 aminoacylation ribozyme variant]
subjectOfTest: biotinyl-Leu-oxazolone
self-aminoacylation: 0.93

residues: AUUCACCUAGGUCAUCGCGUU [Fam2.2 aminoacylation ribozyme variant]
subjectOfTest: biotinyl-Leu-oxazolone
self-aminoacylation: 3

residues: CCACACUUCAAGCAAGUGGUC [Fam1B.1 aminoacylation ribozyme variant]
subjectOfTest: biotinyl-Leu-oxazolone
self-aminoacylation: 0.449

residues: AUUACCCUGGGCAUUGAGUGA [Fam2.1 aminoacylation ribozyme variant]
subjectOfTest: biotinyl-Leu-oxazolone
self-aminoacylation: 11.3

residues: CCACACUUCAAGCCGUCGGUC [Fam1B.1 aminoacylation ribozyme variant]
subjectOfTest: biotinyl-Leu-oxazolone
self-aminoacylation: 1.57

residues: CUACUUCAUACAAUCGGUCAG [Fam1A.1 aminoacylation ribozyme variant]
subjectOfTest: biotinyl-Leu-oxazolone
self-aminoacylation: 0.662

residues: AUUCACCUAGGUCACCCGGUG [Fam2.2 aminoacylation ribozyme variant]
subjectOfTest: biotinyl-Leu-oxazolone
self-aminoacylation: 9.93

residues: AUAACCCUGAUCAUCGAGUGA [Fam2.1 aminoacylation ribozyme variant]
subjectOfTest: biotinyl-Leu-oxazolone
self-aminoacylation: 6.46

###

- Test system: biotinyl-Trp-oxazolone
- assaySummary: self-aminoacylation, catalytic enhancement (BWO) (fold over background); higher = more active; k-Seq, kA / k0A0; sequences stand for … in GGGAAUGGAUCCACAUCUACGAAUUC…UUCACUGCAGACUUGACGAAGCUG
Variants at the floor of the assay were thinned out.
Label true when self-aminoacylation is at or above 2; anything below gets false.

residues: AGUCACUUAGGUCAUCGGGUG [Fam2.2 aminoacylation ribozyme variant]
category: true

residues: AUUUCCCUGGUCAUCGAGAGA [Fam2.1 aminoacylation ribozyme variant]
category: false

residues: CCACACUUCAACCACUCGGUC [Fam1B.1 aminoacylation ribozyme variant]
category: false

residues: UAGUUUGCGAAUAGUCGCAAG [Fam3.1 aminoacylation ribozyme variant]
category: false

residues: AUUCACCUCGUUCAUCGGGUG [Fam2.2 aminoacylation ribozyme variant]
category: true

residues: AAGUUGGCUAAUAGUUGCAAG [Fam3.1 aminoacylation ribozyme variant]
category: false

residues: AUUCACUUAGGUCAUCGGGGG [Fam2.2 aminoacylation ribozyme variant]
category: true

residues: AAGUCUGCUAAAAGUCGCAAG [Fam3.1 aminoacylation ribozyme variant]
category: true

residues: CUGCUUCAAUCAAUCGGUCUG [Fam1A.1 aminoacylation ribozyme variant]
category: true

###

Reported self-aminoacylation values are given for each entry in this list.
- Test system: biotinyl-Phe-oxazolone
- assaySummary: self-aminoacylation, catalytic enhancement (BFO) (fold over background); higher = more active; k-Seq, kA / k0A0; sequences stand for … in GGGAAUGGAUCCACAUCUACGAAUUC…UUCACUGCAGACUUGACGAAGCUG
This sample holds only a part of the variants without activity.
endpointName: self-aminoacylation

residues: AAGUUUGCCAAUAUUCGCAAG [Fam3.1 aminoacylation ribozyme variant]
result: 3.77
--
residues: AUUAACCUAGGGCAUCGGGUG [Fam2.2 aminoacylation ribozyme variant]
result: 14.1
--
residues: AAGUGUGCUAAUAAUCGCAAG [Fam3.1 aminoacylation ribozyme variant]
result: 1.51
--
residues: AUUCACGUAGGGCAUCGGGUG [Fam2.2 aminoacylation ribozyme variant]
result: 43.3
--
residues: CCAGUCUUCAAGCAAUCGGUC [Fam1B.1 aminoacylation ribozyme variant]
result: 68.5
--
residues: CCACACUUCAAGCAAUUGGUC [Fam1B.1 aminoacylation ribozyme variant]
result: 1.43
--
residues: AUUACCAGGGUCAUCGAGUGA [Fam2.1 aminoacylation ribozyme variant]
result: 17.2
--
residues: CCACACAUCAAACAAUCGGUC [Fam1B.1 aminoacylation ribozyme variant]
result: 3.04
--
residues: CUACUUCCAACAAUAGGUCUG [Fam1A.1 aminoacylation ribozyme variant]
result: 0.659
--
residues: GAGGUUGCUAAUAGUCGCAAG [Fam3.1 aminoacylation ribozyme variant]
result: 3.14
--
residues: AUUCACUUAGUUCAUCGGGUG [Fam2.2 aminoacylation ribozyme variant]
result: 11.1
--
residues: CUACUUCACACAAUCUGUCUG [Fam1A.1 aminoacylation ribozyme variant]
result: 0.903
--
residues: AAGUUUGCUAAUCGUCGCAAG [Fam3.1 aminoacylation ribozyme variant]
result: 3.12
--
residues: CUACUUCAAACAACCGGUCCG [Fam1A.1 aminoacylation ribozyme variant]
result: 0.643
--
residues: AUUCAGCUAGGUCAUCGUGUG [Fam2.2 aminoacylation ribozyme variant]
result: 3.57
--
residues: AUAACCCUGGUCCUCGAGUGA [Fam2.1 aminoacylation ribozyme variant]
result: 13.1
--
residues: CCACACUUCAAUCAAUCGGUG [Fam1B.1 aminoacylation ribozyme variant]
result: 2.64
--
residues: AUUCACCUAGGUCCUCGGGGG [Fam2.2 aminoacylation ribozyme variant]
result: 9.54

###

Reported self-aminoacylation values are given for each entry in this list.
- Test system: biotinyl-Met-oxazolone
- assaySummary: self-aminoacylation, catalytic enhancement (BMO) (fold over background); higher = more active; k-Seq, kA / k0A0; sequences stand for … in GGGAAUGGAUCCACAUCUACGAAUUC…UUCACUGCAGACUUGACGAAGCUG
This sample holds only a part of the variants without activity.

residues: AUUCACAUAGGUCAUCGGCUG [Fam2.2 aminoacylation ribozyme variant]
self-aminoacylation: 1.64
--
residues: AGGUUUGCUAAUAGUCGCCAG [Fam3.1 aminoacylation ribozyme variant]
self-aminoacylation: 1.51
--
residues: CUGCUUCAAAAAAUCGGUCUG [Fam1A.1 aminoacylation ribozyme variant]
self-aminoacylation: 1.25
--
residues: CCAGACGUCAAGCAAUCGGUC [Fam1B.1 aminoacylation ribozyme variant]
self-aminoacylation: 1.52
--
residues: AUUACCCUGGUCAUCCAGUUA [Fam2.1 aminoacylation ribozyme variant]
self-aminoacylation: 0.914
--
residues: AUACUUCAAACAAUCAGUCUG [Fam1A.1 aminoacylation ribozyme variant]
self-aminoacylation: 0.823
--
residues: AUUACAAUGGUCAUCGAGUGA [Fam2.1 aminoacylation ribozyme variant]
self-aminoacylation: 6.47
--
residues: AUUCAGCUAGGUCAUCCGGUG [Fam2.2 aminoacylation ribozyme variant]
self-aminoacylation: 6.6
--
residues: AUUCACCUGGGCCAUCGGGUG [Fam2.2 aminoacylation ribozyme variant]
self-aminoacylation: 6.2
--
residues: AACUUUGCUAAUUGUCGCAAG [Fam3.1 aminoacylation ribozyme variant]
self-aminoacylation: 2.71
--
residues: AUUACCGUGGUCAUCGACUGA [Fam2.1 aminoacylation ribozyme variant]
self-aminoacylation: 0.911
--
residues: AUUACCCUGGUCCUCGAGUAA [Fam2.1 aminoacylation ribozyme variant]
self-aminoacylation: 0.966
--
residues: AUUGCCCUGGUCAUCGACUGA [Fam2.1 aminoacylation ribozyme variant]
self-aminoacylation: 0.941
--
residues: CUUCUUCAAACAACCGGUCUG [Fam1A.1 aminoacylation ribozyme variant]
self-aminoacylation: 0.98
--
residues: CUACUUUCAACAAUCGGUCUG [Fam1A.1 aminoacylation ribozyme variant]
self-aminoacylation: 0.895
--
residues: AUUACGCUGGUCAUCGACUGA [Fam2.1 aminoacylation ribozyme variant]
self-aminoacylation: 0.889
--
residues: ACUCCCCUAGGUCAUCGGGUG [Fam2.2 aminoacylation ribozyme variant]
self-aminoacylation: 13.7
--
residues: AUUACCCUAGUCCUCGAGUGA [Fam2.1 aminoacylation ribozyme variant]
self-aminoacylation: 4.15
